- assay_text: protein stability index of a GFP-peptide fusion (yeast GPS) (PSI 1-4); higher = more stable; sorted into four equal gates, so the index is relative within each strain
- measurement_conditions: pdr5∆
Param threshold (3) applies to protein stability index; output yes when value >= threshold, no when value < threshold.

# check: protein stability index of EYKKHFPPNLEKGENPS [UBP6] is greater than or equal to 3 no

# check: protein stability index of DGMYSESKLSLETLFNR [FAS2] is greater than or equal to 3 yes

# check: protein stability index of IGIVEIAHENEQKWLIY [SRB8] is greater than or equal to 3 no

# check: protein stability index of EITDAYCFAKNDLFFNN [YMR129W/POM152] is greater than or equal to 3 no

# check: protein stability index of ATAEKLPNIYPSTRCKL [RPT2] is greater than or equal to 3 no

# check: protein stability index of PAMAMEDLKNFIFQIIE [SRB8] is greater than or equal to 3 no

# check: protein stability index of HCDKCSVVLTLQAFGES [RPB3] is greater than or equal to 3 yes

====

- assay_text: protein stability index of a GFP-peptide fusion (yeast GPS) (PSI 1-4); higher = more stable; sorted into four equal gates, so the index is relative within each strain
- measurement_conditions: doa10∆
attribute_measured: protein stability index
Respond numerically, and do not add a unit to the figure.

// worked examples, protein stability index included
> print(dat)
                sequence.text  observed
1   QLIKVAVHNGGRKHVAA [RPL9A]      2.47
2    TAASVFKELCYENKDNL [PRE3]      2.67
3  KYLEQVLDHQRAIPFRR [RPL17A]      2.52
4   KVYYFQGGNNELGTAVG [RPL30]      2.67
5    QRKTVNSDDILSLHENY [POP1]      2.55

Moving on to another sequence below.
Please give the measured protein stability index for this sequence: TTLKSVTIASEIYYDPD [RPO21] 2.75

====

- assay_text: protein stability index of a GFP-peptide fusion (yeast GPS) (PSI 1-4); higher = more stable; sorted into four equal gates, so the index is relative within each strain
- measurement_conditions: san1∆
protein stability index values, listed per item
Respond numerically, and do not add a unit to the figure.

// worked examples, protein stability index included
> print(dat)
               sequence.text  observed
1   NETSEQLVPIRLEFDQD [SNF5]      3.31
2   KDFIENVNNRFDNFLTE [BRN1]       3.2
3  ITNTDETITTKRVPNPN [SWP82]      3.13
4  AILRQQQQMANNNGNPG [GAL11]       2.7

Moving on to another sequence below.
Please give the measured protein stability index for this sequence: QRSRRKFSERRKALPKE [DSN1] 3.52

====

- assay_text: protein stability index of a GFP-peptide fusion (yeast GPS) (PSI 1-4); higher = more stable; sorted into four equal gates, so the index is relative within each strain
- measurement_conditions: san1∆
protein stability index values, listed per item
Respond numerically, and do not add a unit to the figure.

// worked examples, protein stability index included
> print(dat)
               sequence.text       attribute.measured  observed
1  IQQLISQFLKRVHANLQ [SNF11]  protein stability index      1.52
2   LRASFNKLSSILQNEHD [SRB4]  protein stability index      1.52
3   SIDFRTYRCSIKNLPAD [SRB2]  protein stability index      2.19
4   HQGSGGSVMSASVEIVF [SMC3]  protein stability index       2.4
5   VKESNNYYSNKSNSTGN [REC8]  protein stability index      2.56

Please give the measured protein stability index for this sequence: IKKPTSAVVSSNASRRK [RPN4] 2.36

Please give the measured protein stability index for this sequence: KHWQERVKVHFDQAGKK [RPL13A] 2.28

Please give the measured protein stability index for this sequence: TYIKSEITQQEKGLNEL [SMC4] 2.75

Please give the measured protein stability index for this sequence: VQYLRSVQDLGGSATAR [YML031W/NDC1] 1.53

Reference for the values: the supplement of paper PMC9732359
